molecular target: T1, recombinant CD47 (recCD47), SinoBiological 12283-H27H-B, biotinylated (human, UniProt Q08722 19-139, biotinylated (AVI-tag)); test: SPR Biacore S200, single-cycle, recCD47 on SA chip 100 RU, antibody as analyte, 25 C, 1:1 model;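 also: antibodies were injected over the captured CD47 at a series of concentrations, and KD was derived as the dissociation rate constant divided by the association rate constant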
T1 construct: Bought protein, 17 kDa; At 17 kDa it can only be a part of it; also called recombinant biotinylated CD47; not shown: C-terminal His- and AVI-tag
T1 sequence (Q08722 19-139 limits assumed): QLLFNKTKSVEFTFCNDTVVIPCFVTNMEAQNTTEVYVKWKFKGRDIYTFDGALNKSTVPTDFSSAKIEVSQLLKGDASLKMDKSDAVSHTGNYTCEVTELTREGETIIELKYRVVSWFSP
quantity kind: koff (s⁻¹)
Supply the numeric figure in s⁻¹, leaving out any unit text.

Below: 2 binders and their reported koff.
binder	measurement unit	koff
CO211 humanized IgG4 anti-CD47 antibody (antibody, V domains shown, also called huCO-mAb) VH: QVQLVQSGSELKKPGASVKVSCKASGYTFTNFGMHWVRQAPGQGLKWMGWINTYTGEPTYTDDFKGRFVFSLDTSVSTAYLQISSLKAEDTAVYYCTRGDYRYGDSWGQGTTVTVSS VL: DIVMTQTPLSLSVTPGQPASISCRSSQSLVHSNGKTYLHWYLQKPGQSPKLLIYRVSNRFSGVPDRFSGSGSGTDFTLKISRVEAEDVGVYYCSQSTHVPFTFGQGTKLEIK	s⁻¹	6.8e-05
CO202 humanized IgG4 anti-CD47 antibody (antibody, V domains shown, also called huCO-mAb) VH: QVQLVQSGSELKKPGASVKVSCKASGYTFTNFGMHWVRQAPGQGLEWMGWINTYTGEPTYTDDFKGRFVFSLDTSVSTAYLQISSLKAEDTAVYYCTRGDYRYGDSWGQGTTVTVSS VL: DIVMTQTPLSLSVTPGQPASISCRSSQSLVHSNGKTYLHWYLQKPGQPPQLLIYRVSNRFSGVPDRFSGSGSGTDFTLKISRVEAEDVGVYYCSQSTHVPFTFGQGTKLEIK	s⁻¹	0.00012

Switching to the query record.
So, CO201 humanized IgG4 anti-CD47 antibody (antibody, V domains shown, also called huCO-mAb) VH: QVQLVQSGSELKKPGASVKVSCKASGYTFTNFGMHWVRQAPGQGLEWMGWINTYTGEPTYTDDFKGRFVFSLDTSVSTAYLQISSLKAEDTAVYYCARGDYRYGDSWGQGTTVTVSS VL: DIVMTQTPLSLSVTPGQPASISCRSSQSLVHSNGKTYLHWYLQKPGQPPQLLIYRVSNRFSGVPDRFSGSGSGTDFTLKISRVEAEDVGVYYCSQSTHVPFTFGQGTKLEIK ? Its koff was 0.00043
